- System: U-937
- assay-comment: Antiproliferative activity against human U937 cells after 24 hrs by MTT assay
- Format: functional
- assay-setup: U-937, 24 h
measure: GI50

| compound-structure-string | val |
| --- | --- |
| CCCS(=O)(=O)Nc1ccc(C)c(NC(=O)c2cnoc2C)c1 | > 30 µM |
| Cc1ccc(NC(=O)Nc2ccccc2F)cc1NC(=O)c1cnoc1C | > 30 µM |
| Cc1cc(NC(=O)Nc2cccc(C(F)(F)F)c2)ccc1NC(=O)c1cnoc1C | > 30 µM |

----------
- System: U-937
- assay-comment: Antiproliferative activity against human U937 cells after 24 hrs by MTT assay
- Format: functional
- assay-setup: U-937, 24 h
Listed here are compounds together with their documented GI50.

| compound | GI50 |
| --- | --- |
| Cc1cc(NC(=O)Nc2cc(Cl)cc(Cl)c2)ccc1NC(=O)c1cnoc1C | > 30 µM |
| Cc1ccc(NC(=O)C2(C)CCc3c(C)c(O)c(C)c(C)c3O2)cc1NC(=O)c1cnoc1C (stereo not drawn) | > 30 µM |
| Cc1cc(NC(=O)c2cc(N3CCN(C)CC3)cc(C(F)(F)F)c2)ccc1NC(=O)c1cnoc1C | > 30 µM |
| Cc1ccc(NC(=O)Nc2cc(Cl)cc(Cl)c2)cc1NC(=O)c1cnoc1C | > 30 µM |
| Cc1ccc(NC(=O)Nc2cccc(C(F)(F)F)c2)cc1NC(=O)c1cnoc1C | > 30 µM |
| Cc1ccc(NC(=O)c2cc(N3CCN(C)CC3)cc(C(F)(F)F)c2)cc1NC(=O)c1cnoc1C | 0.016 µM |
| Cc1ccc(NC(=O)c2ccc(Cl)c(C(F)(F)F)c2)cc1NC(=O)c1cnoc1C | > 30 µM |
| Cc1ccc(NC(=O)c2ccccc2Sc2ccccc2C#N)cc1NC(=O)c1cnoc1C | > 30 µM |
